meta.source: paper PMC10976160

# procedure_details: Pharmacokinetics in control rats after gavage of JYPs
# Assay type: in vivo, Sprague Dawley (SD) rats
# run_parameters: male, Sprague-Dawley, rat, plasma, 2.16 g/kg/day, oral JYPs medium dose 2.160 g/kg/d (2nd of 3 values), read-out: MRT(0-∞)
parameter_measured: MRT inf (h)

[[record]]
compound = "C[C@H]1O[C@@H](O[C@H]2CC[C@@]3(C)[C@@H](CC[C@]4(C)[C@@H]3C=C[C@]35OC[C@@]6(CCC(C)(C)C[C@H]63)[C@@H](O)C[C@]54C)[C@]2(C)CO)[C@H](O)[C@@H](O[C@@H]2O[C@H](CO)[C@@H](O)[C@H](O)[C@H]2O)[C@H]1O"
observed_value = 13.3

[[record]]
compound = "CCCC=C1OC(=O)C2=C1CCC1C3C=C4C(=O)OC(=CCCC)C4(CC3)C21 (stereo not shown) [Levistilide A]"
observed_value = 24.1


(I) CCC/C=C1\OC(=O)C2=C1CCC=C2 [Z-Ligustilide]
(II) C[C@H]1O[C@@H](O[C@H]2CC[C@@]3(C)[C@@H](CC[C@]4(C)[C@@H]3C=C[C@]35OC[C@@]6(CCC(C)(C)C[C@H]63)[C@H](O)C[C@]54C)[C@]2(C)CO)[C@H](O)[C@@H](O[C@@H]2O[C@H](CO)[C@@H](O)[C@H](O)[C@H]2O)[C@H]1O
Hi there! Just curious which has the higher MRT inf between I and II . // caller expects the label of the chosen entry
I

====

# procedure_details: Pharmacokinetics in control rats after gavage of JYPs
# Assay type: in vivo, Sprague Dawley (SD) rats
# run_parameters: male, Sprague-Dawley, rat, plasma, 2.16 g/kg/day, oral JYPs medium dose 2.160 g/kg/d (2nd of 3 values)
parameter_measured: Cmax (ng/mL)

(a) C[C@H]1O[C@@H](O[C@H]2CC[C@@]3(C)[C@@H](CC[C@]4(C)[C@@H]3C=C[C@]35OC[C@@]6(CCC(C)(C)C[C@H]63)[C@@H](O)C[C@]54C)[C@]2(C)CO)[C@H](O)[C@@H](O[C@@H]2O[C@H](CO)[C@@H](O)[C@H](O)[C@H]2O)[C@H]1O
(b) CCC/C=C1\OC(=O)C2=C1CCC=C2 [Z-Ligustilide]
(c) C[C@H]1O[C@@H](O[C@H]2CC[C@@]3(C)[C@@H](CC[C@]4(C)[C@@H]3C=C[C@]35OC[C@@]6(CCC(C)(C)C[C@H]63)[C@H](O)C[C@]54C)[C@]2(C)CO)[C@H](O)[C@@H](O[C@@H]2O[C@H](CO)[C@@H](O)[C@H](O)[C@H]2O)[C@H]1O
(d) CCCC=C1OC(=O)C2=C1CCC1C3C=C4C(=O)OC(=CCCC)C4(CC3)C21 (stereo not shown) [Levistilide A]
Please list the entries, largest Cmax first. Write the labels, ordered according to the request.
a, c, b, d

====

# procedure_details: Pharmacokinetics in control rats after gavage of JYPs
# Assay type: in vivo, Sprague Dawley (SD) rats
# run_parameters: male, Sprague-Dawley, rat, plasma, 4.32 g/kg/day, oral JYPs high dose 4.320 g/kg/d (3rd of 3 values)
parameter_measured: AUC(0-inf) (ng·h/mL)

[[record]]
compound = "CCC/C=C1\\OC(=O)C2=C1CCC=C2 [Z-Ligustilide]"
unit_annotation = "ng·h/mL"
observed_value = 53.4


(A) C[C@H]1O[C@@H](O[C@H]2CC[C@@]3(C)[C@@H](CC[C@]4(C)[C@@H]3C=C[C@]35OC[C@@]6(CCC(C)(C)C[C@H]63)[C@H](O)C[C@]54C)[C@]2(C)CO)[C@H](O)[C@@H](O[C@@H]2O[C@H](CO)[C@@H](O)[C@H](O)[C@H]2O)[C@H]1O
(B) CCCC=C1OC(=O)C2=C1CCC1C3C=C4C(=O)OC(=CCCC)C4(CC3)C21 (stereo not shown) [Levistilide A]
(C) C[C@H]1O[C@@H](O[C@H]2CC[C@@]3(C)[C@@H](CC[C@]4(C)[C@@H]3C=C[C@]35OC[C@@]6(CCC(C)(C)C[C@H]63)[C@@H](O)C[C@]54C)[C@]2(C)CO)[C@H](O)[C@@H](O[C@@H]2O[C@H](CO)[C@@H](O)[C@H](O)[C@H]2O)[C@H]1O
Hey, quick one: sort these by AUC(0-inf), largest value first please. Answer by listing the labels in the requested order.
C, A, B

====

# procedure_details: Pharmacokinetics in control rats after gavage of JYPs
# Type: in vivo, Sprague Dawley (SD) rats
# run_parameters: male, Sprague-Dawley, rat, plasma, po, 2.16 g/kg/day, oral JYPs medium dose 2.160 g/kg/d (2nd of 3 values), read-out: Tmax
parameter_measured: Tmax (min)

[[record]]
compound = "CCCC=C1OC(=O)C2=C1CCC1C3C=C4C(=O)OC(=CCCC)C4(CC3)C21 (stereo not shown) [Levistilide A]"
observed_value = 55.2


(P) C[C@H]1O[C@@H](O[C@H]2CC[C@@]3(C)[C@@H](CC[C@]4(C)[C@@H]3C=C[C@]35OC[C@@]6(CCC(C)(C)C[C@H]63)[C@@H](O)C[C@]54C)[C@]2(C)CO)[C@H](O)[C@@H](O[C@@H]2O[C@H](CO)[C@@H](O)[C@H](O)[C@H]2O)[C@H]1O
(Q) CCC/C=C1\OC(=O)C2=C1CCC=C2 [Z-Ligustilide]
// which entry has the larger Tmax value, P or Q ? # answer = label of selected item
Q
(Q: 70.2 min, P: 23.4 min)

====

# procedure_details: Pharmacokinetics in control rats after gavage of JYPs
# Format: in vivo, Sprague Dawley (SD) rats
# run_parameters: oral JYPs low dose 1.080 g/kg/d (1st of 3 values)
# Excerpt: According to the established method for the analysis of serum biological samples, the pharmacokinetics of various components of rat serum were investigated after the administration of different dosages of JYPs to control rats. For the control experiment, healthy male Sprague Dawley (SD) rats of SPF grade ([…] ± 20 g) were purchased from Sipeifu (Beijing) Biotechnology Co., Ltd. (Beijing, China), Animal Quality Certificate No. 110324220102348616. […]
Measured AUMC(0-ꝏ) values are reported for all entries that follow.

Consider the compound shown here: CCCC=C1OC(=O)C2=C1CCC1C3C=C4C(=O)OC(=CCCC)C4(CC3)C21 (stereo not shown) [Levistilide A] What is its recorded AUMC(0-ꝏ)?
584.44± 254.39 ng/mL*(h)²

Name the reported AUMC(0-ꝏ) value associated with the compound CCC/C=C1\OC(=O)C2=C1CCC=C2 [Z-Ligustilide]
839.61± 369.47 ng/mL*(h)²

Given the compound C[C@H]1O[C@@H](O[C@H]2CC[C@@]3(C)[C@@H](CC[C@]4(C)[C@@H]3C=C[C@]35OC[C@@]6(CCC(C)(C)C[C@H]63)[C@@H](O)C[C@]54C)[C@]2(C)CO)[C@H](O)[C@@H](O[C@@H]2O[C@H](CO)[C@@H](O)[C@H](O)[C@H]2O)[C@H]1O , what is its reported AUMC(0-ꝏ)?
1355.37± 1006.84 ng/mL*(h)²

Could you tell me which AUMC(0-ꝏ) is on file for C[C@H]1O[C@@H](O[C@H]2CC[C@@]3(C)[C@@H](CC[C@]4(C)[C@@H]3C=C[C@]35OC[C@@]6(CCC(C)(C)C[C@H]63)[C@H](O)C[C@]54C)[C@]2(C)CO)[C@H](O)[C@@H](O[C@@H]2O[C@H](CO)[C@@H](O)[C@H](O)[C@H]2O)[C@H]1O ?
1331.60± 1006.07 ng/mL*(h)²

====

Listed here: items and their measured AUMC(0-t).
# procedure_details: Pharmacokinetics in control rats after gavage of JYPs
# Type: in vivo, Sprague Dawley (SD) rats
# run_parameters: oral JYPs low dose 1.080 g/kg/d (1st of 3 values)
# Text: According to the established method for the analysis of serum biological samples, the pharmacokinetics of various components of rat serum were investigated after the administration of different dosages of JYPs to control rats. For the control experiment, healthy male Sprague Dawley (SD) rats of SPF grade ([…] ± 20 g) were purchased from Sipeifu (Beijing) Biotechnology Co., Ltd. (Beijing, China), Animal Quality Certificate No. 110324220102348616. […]

Here is how some compounds turned out for AUMC(0-t).
[[record]]
compound = "C[C@H]1O[C@@H](O[C@H]2CC[C@@]3(C)[C@@H](CC[C@]4(C)[C@@H]3C=C[C@]35OC[C@@]6(CCC(C)(C)C[C@H]63)[C@H](O)C[C@]54C)[C@]2(C)CO)[C@H](O)[C@@H](O[C@@H]2O[C@H](CO)[C@@H](O)[C@H](O)[C@H]2O)[C@H]1O [Saikosaponin D]"
parameter_measured = "AUMC(0-t)"
observed_value = "592.40± 473.29 ng/mL*(h)²"

[[record]]
compound = "CCC/C=C1\\OC(=O)C2=C1CCC=C2 [Z-Ligustilide]"
parameter_measured = "AUMC(0-t)"
observed_value = "244.45± 72.75 ng/mL*(h)²"

[[record]]
compound = "CCCC=C1OC(=O)C2=C1CCC1C3C=C4C(=O)OC(=CCCC)C4(CC3)C21 (stereo not shown) [Levistilide A]"
parameter_measured = "AUMC(0-t)"
observed_value = "150.01± 45.26 ng/mL*(h)²"


Here is the next item to consider.
# AUMC(0-t) lookup, item C[C@H]1O[C@@H](O[C@H]2CC[C@@]3(C)[C@@H](CC[C@]4(C)[C@@H]3C=C[C@]35OC[C@@]6(CCC(C)(C)C[C@H]63)[C@@H](O)C[C@]54C)[C@]2(C)CO)[C@H](O)[C@@H](O[C@@H]2O[C@H](CO)[C@@H](O)[C@H](O)[C@H]2O)[C@H]1O [Saikosaponin A]
792.28± 390.55 ng/mL*(h)²
